Numbers sourced from the nanobody polyreactivity screen of Harvey et al. (2022).

- run description: yeast display, Sf9 membrane polyspecificity reagent, FACS + sequencing; frameworks hold sequencing errors
assay metric: polyreactivity (PSR sort gate)

QVQRVESGGGLVQAGGSLRLSCAASGSIIQPYARGWYRQSPGKERELVAAIRSSTGSTYYADSVKGRFTISRDIAKNTVYLQQNSLKPEDSAVYYCARRRWSYVRGYSSGMYYWGQGTQVTVSS | high polyreactivity
QVQLVESGGGLVQAGGSLRLSCAASGINFGQNAMGWYRQAPGKERELVAAITISVGSTYYADSVKGRFTISRDNAKNTVYLQMNSLKPEDTAVYYCAARRVTWKVIARGYRYGYWGQGTQVTVTS | low polyreactivity
QVQHVESGGGLLQAGGSLRLSCAASGITFFEYAMGWYRQAPGKERELVAVITSVGSTNYADSVKGRFTISRDNAKNTVYLQMNSLKPVDTAVYYCNARLVKYRWWYDYYYWGQGTQVTVSS | low polyreactivity
QVQLVESGGGFVQAGGSLRLSCAASGRTFIYNAMGWYRQAPGKERELVARISSGGGNTYYADSVKGRFTISRDNAKNPVYLQINSLKPEDTAVYYGAKGWRPSFSYYWGQGTQVTVSS | high polyreactivity
QVQLVESGGGLVQAGGSLRLSCAASGYTFEYYAMGWYRQAPGKERELVAAISWSGGDTYYADSVKGRFTISRDNAKNTVYLQMNSLNPEDTAVYYCAAVRYYRRRTGSYYHYDYWGQGTQVTVSS | low polyreactivity

* * *

- run description: yeast display, Sf9 membrane polyspecificity reagent, FACS + sequencing; frameworks hold sequencing errors
assay metric: polyreactivity (PSR sort gate)

QVQLVESGGGLVQAGGSLRLSCAASGSIFYPYAMGWYRQAPGKERELVAAIRRSGTTYYADSVKGRFTISRDNAKNTVYLQMNSLKPEDTAVYYCNKVRGQEPSNYDYWGQGTQVTVSS | low polyreactivity
QVQLVESGGGLVQAGGSLRLSCAASGSIFWRNAMGWYRQAPGKERELVAVISSGGRTYYADSVKGRFTISRDNAKNTVYLQMNSLKPEDTAVYYCAAQYHGGISQRLYYWGQGTQVTVSS | high polyreactivity
QVQLVESGGGEVQAGGSLRLICAASGRTFQLNAMGWYRQAPGKERELVAAISTRGGSTYYADSVKGRFTISRDNAKNTVYLQMISLKPEDTAVYYCAARVWTANYEMDLWGQGTQVTVSS | high polyreactivity
QVQLVESGGGLVKARGSLLLSCAASGFTFPYNAMGWYRQAPGKDRELVAAISWSGGSTYYADSVKGRFTLSRDNAKNTVYLQMNSLKPEDTAVYYCAASYWWIPMEYWGQVTQVTVSS | high polyreactivity
KVQLVESGGGLVQAGGSLRLSCDASGSTFQYYTMGWYRQAPGKESELVAAISADGGNTYYADSVKGRFTISRDNAKNTVYLQMNSLKPEDTAVYYCNADVSLTLRTLVPGRAYDYWGQGTQVTVSS | low polyreactivity

* * *

- run description: yeast display, Sf9 membrane polyspecificity reagent, FACS + sequencing; frameworks hold sequencing errors
assay metric: polyreactivity (PSR sort gate)

QVQLVESGGGLVQAGGSLRLSCAASGRIFGWYAMGWYRQAPGKERELVAAITSSVGRTYYADSVKGRFTISRDNAKNTVYLQMNSLKPEDTAVYYCAKDLYTYYYFEYDYWGQGTQVTVSS | low polyreactivity
QVQLVESGGGLVQAGGSLRLSCAASGLIFGWNARGWYRQAPGKERELVAAINSGGITNYADSVKGRFTISRDNAKNTVYFQMNWLKPEDTAVYYCAADVVQYGLDWYGEEYESWGQGTQVTVSS | low polyreactivity
QVQLVESGGGLVQAGGSLRLSCAASGSTFSYNAKGWYRQAPGKERELANYADSVKGRFTISRDKAKNTVYLQMNSLKPEDTAVYYCAAVGFSYYVIRFDYWGQGTQVTVSS | low polyreactivity
